- TARGET DESC: Neuromedin-K receptor (Homo sapiens)
- Sequence (P29371 whole entry): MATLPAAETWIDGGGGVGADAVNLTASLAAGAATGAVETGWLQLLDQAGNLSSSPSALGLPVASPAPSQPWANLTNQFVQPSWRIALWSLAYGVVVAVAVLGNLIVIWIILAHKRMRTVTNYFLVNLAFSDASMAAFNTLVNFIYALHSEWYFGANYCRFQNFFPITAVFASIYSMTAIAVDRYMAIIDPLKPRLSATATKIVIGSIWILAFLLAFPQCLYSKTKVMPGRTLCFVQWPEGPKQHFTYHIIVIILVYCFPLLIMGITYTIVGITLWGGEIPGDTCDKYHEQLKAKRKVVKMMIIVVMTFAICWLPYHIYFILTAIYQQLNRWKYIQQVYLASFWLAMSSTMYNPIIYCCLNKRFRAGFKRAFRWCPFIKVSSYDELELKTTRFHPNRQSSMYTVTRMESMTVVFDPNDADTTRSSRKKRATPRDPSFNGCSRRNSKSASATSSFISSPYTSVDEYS
- TEST NAME: Displacement of [3H]SR142801 from human recombinant NK3 receptor
ATTRIBUTE MEASURED: IC50

Input line: Report IC50 for `Nn1c(CCCCN2CCN(c3ccc4ccccc4n3)CC2)nc2c(c1=O)CCCC2` please.
Output line: > 1000 nM

* * *

- TARGET DESC: UniProt:P49146
- Sequence (P49146 whole entry): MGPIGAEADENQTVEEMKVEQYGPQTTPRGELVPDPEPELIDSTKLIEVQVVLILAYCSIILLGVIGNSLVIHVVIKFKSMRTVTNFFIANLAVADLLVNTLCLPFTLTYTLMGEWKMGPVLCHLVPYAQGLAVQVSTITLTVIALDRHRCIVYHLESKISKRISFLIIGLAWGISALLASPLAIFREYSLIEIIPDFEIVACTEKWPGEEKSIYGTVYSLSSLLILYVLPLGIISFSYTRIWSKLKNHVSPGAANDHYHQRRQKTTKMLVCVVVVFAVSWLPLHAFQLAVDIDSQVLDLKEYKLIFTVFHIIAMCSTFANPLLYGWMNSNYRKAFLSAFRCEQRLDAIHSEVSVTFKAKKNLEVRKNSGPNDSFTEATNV
- TEST NAME: Displacement of [125I]peptide YY from NPY2 receptor in human KAN-TS cells
ATTRIBUTE MEASURED: IC50

Input line: Report IC50 for `Nn1c(CCCCN2CCN(c3ccc4ccccc4n3)CC2)nc2c(c1=O)CCCC2` please.
Output line: > 1 µM

Numbers sourced from ChEMBL document CHEMBL1275331.
